Quick reference: protein stability index of the listed items.
Experiment: protein stability index of a GFP-peptide fusion (GPS, HEK-293T) (PSI 1-6); higher = more stable;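 also: 24-mer peptide tiles fused after GFP, lentivirally expressed, FACS-sorted into six equal bins by GFP/DsRed ratio, decoded by Illumina sequencing, PSI is the read-weighted mean bin number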
Settings: treatment: MLN4924 1 uM, 8 h; c terminus: native
Property Name: protein stability index

Seq String: SSVSPAVSKASSRRSSFSMEEES [TFE3]
Property Name: protein stability index
Experimental Result: 5.28
//
Seq String: PFEPQALGLSPSWRLTGFSGMKG [SEPHS2]
Property Name: protein stability index
Experimental Result: 2.64
//
Seq String: RQKVLSLPLPDPLKYYLLYYREK [PCMTD2]
Property Name: protein stability index
Experimental Result: 2.46

###

Assay: protein stability index of a GFP-peptide fusion (GPS, HEK-293T) (PSI 1-6); higher = more stable
Conditions: treatment: MLN4924 1 uM, 8 h; c terminus: a fixed tail appended

Seq String: IKDLSVVHSDLSSIVILDNSPGAY [CTDNEP1]
protein stability index: 2.48
//
Seq String: KRFQTLISKMEPLEIPVETITSEV [CRY1]
protein stability index: 3.5
//
Seq String: SQEETSILRCWKCRKCIASSGCFM [RNF180]
protein stability index: 2.89
//
Seq String: ITSSIPDTERLDDFHLSIHSDMAA [DVL3]
protein stability index: 4.3
//
Seq String: VPYCERDYEKMFGTKCHGCDFKID [PDLIM7]
protein stability index: 3.46
//
Seq String: PPETKHQALSGTPKKGPAPSLSPG [TSPAN10]
protein stability index: 5.31
//
Seq String: HFQDNLHSVNRDLNELERLSNLVG [MED27]
protein stability index: 3.52
//
Seq String: APQNLTRWTFEKACHPFLLGPPLV [TOR1AIP2]
protein stability index: 2.08
//
Seq String: VSKVTGWCRDRLLGHREPSAHPVE [TMEM175]
protein stability index: 3.33
//
Seq String: PTWIIDPIDGTTNFVHRFPFVAVS [IMPA1]
protein stability index: 2.25
//
Seq String: TLDKRWRVRKEAMMGLAQIYKKYA [PDS5B]
protein stability index: 2
//
Seq String: LSLYQLSLERGTALFAQVQRGALP [RSAD1]
protein stability index: 2.32
//
Seq String: AEALFDFTGNSKLELNFKAGDVIF [NCF4]
protein stability index: 2.23
//
Seq String: RRCKPKKPTRRDASPESPSKKGPI [GNAS]
protein stability index: 5.23
//
Seq String: RVEEQAILDAMAEETRQKQLLADE [TRIM35]
protein stability index: 5.38
//
Seq String: DVKTNVQLLKGRVDNISTLDSEIK [CD207]
protein stability index: 4.01
//
Seq String: TSIGDGPLSSDIQVITQTGVPGQP [PTPRD]
protein stability index: 4.76
//
Seq String: EFAGSSPQSSKSTVVKSLIDNSSE [FAN1]
protein stability index: 5.28
//
Seq String: KRPAPRTAPRQEKHERTHEIIPIN [SPRY1]
protein stability index: 4.2
//
Seq String: AGALLRLPSERLDFSMAEALNQEF [PRPH]
protein stability index: 3.52
//
Seq String: DQTTSEETVGGAILDQTTSEDAVG [HDAC6]
protein stability index: 5.54
//
Seq String: RKLFGQESGPSAEKYSVATQLFIG [FUNDC2]
protein stability index: 2.47
//
Seq String: SRVGKQSFIITLGCNSVLIQFATP [CARM1]
protein stability index: 2.97
//
Seq String: GPLGDCLRDWEDLQQDFQNIQETH [TMEM120A]
protein stability index: 4.41
//
Seq String: MEPATAPRPDMAPELTPEEEQATK [PTPN9]
protein stability index: 5.08
//
Seq String: LAAKERHCGELKRRLGLSTLGELK [TPD52L2]
protein stability index: 3.02
//
Seq String: NATWLVNSAAHLFGYRPYDKNISP [SCD]
protein stability index: 2.34
//
Seq String: FYHDHTKIIICSQNEEYLLTYINE [PLK2]
protein stability index: 2.58
//
Seq String: NILFYVVGLRNTLTRIRKWIEHSK [GLT8D2]
protein stability index: 2.76
//
Seq String: KIIFRVGLVLLKHALGSPEKVKAC [TBC1D10A]
protein stability index: 2.76
//
Seq String: EGSIWRGAQMEKEWARALETRDWG [ZSWIM9]
protein stability index: 3.42
//
Seq String: CLAQGWKQYQQRAFGWFRCSSCQR [RTP4]
protein stability index: 2.27
//
Seq String: PAPNKKRKSSKLIMELTGGGQESS [MYOZ1]
protein stability index: 4.73

###

Assay: protein stability index of a GFP-peptide fusion (GPS, HEK-293T) (PSI 1-6); higher = more stable
Conditions: treatment: MLN4924 1 uM, 8 h; c terminus: a fixed tail appended

Seq String: KTKAPAPDEGSDLFYDDYYEDGEV [CDC34]
protein stability index: 5.38
//
Seq String: AEGLANGPDVLETDGLQEVPLCSC [EHMT1]
protein stability index: 5
//
Seq String: QAYAHYLLATFPRRALAPPSAGFR [ANKRD9]
protein stability index: 2.37
//
Seq String: KEAGLSQSHDDLSNATATPSVRKK [C2CD2L]
protein stability index: 5.53
//
Seq String: HVFQRQKSELSDGIAILVGSNDRV [TRIM55]
protein stability index: 3.21
//
Seq String: QAAFTQQGMEGIKVFLHERELWLK [TBX5]
protein stability index: 2.92
//
Seq String: HTGEPLFSGSNEVDQMNRIVEVLG [DYRK1B]
protein stability index: 3.57
//
Seq String: GQTGTRLTPADKAEHMKRQRHPRL [AUP1]
protein stability index: 4.6
//
Seq String: RRNSEFEIFVDCDINREQLNDIFH [TPH1]
protein stability index: 2.73
//
Seq String: QRSYFLRIFDIKDGKLLWEQELYN [WASL]
protein stability index: 2.08
//
Seq String: CLSFQPECSMKLTPLVLEVFGNEI [VDR]
protein stability index: 2.52
//
Seq String: PDEEPMHYGNIMYDRRVIRGNTYA [RSPH3]
protein stability index: 3.41
//
Seq String: YKDFLWFFSKRFKSAAMLAVFAVS [SOAT1]
protein stability index: 2.4
//
Seq String: VDQKLELNIVPRTKVVYLASETFN [PI4K2A]
protein stability index: 2.51
//
Seq String: DIWSKSNYQVFQKVTDHATTALLH [MED27]
protein stability index: 2.34
//
Seq String: CCRACSVSFSTGAGGWSNHHFCVI [BET1L]
protein stability index: 2.35
//
Seq String: QIMFDVEMHTSRDHSSQSEEEVVE [BNIP3L]
protein stability index: 5.37
//
Seq String: KNGRVDSEDRRSRHCPYLDTINRS [USP39]
protein stability index: 4.2
//
Seq String: TCSADHLIILWKNGERESGLRSLR [WDR41]
protein stability index: 2.28
//
Seq String: YQLELQCCIDWTHVTDPLIGCKKP [SMG5]
protein stability index: 2.1
//
Seq String: PVPVIVSNFNYFYHRETEGEEQAQ [KCNA1]
protein stability index: 3.81
//
Seq String: MSAALFSLDGPARGAPWPAEPAPF [CEBPD]
protein stability index: 3.21
//
Seq String: ICPKCWTLMTMAIRIIDRALKEDF [PRIM1]
protein stability index: 2.57
//
Seq String: CEEALCSNLSVENVADTLVLADLH [SPOPL]
protein stability index: 4.48
//
Seq String: KLAQALHEMREQHDAQVRLYKEEL [LMNB1]
protein stability index: 2.7
//
Seq String: KRRRKETSECPSDKDKSPESHKAK [C10orf62]
protein stability index: 5.42
//
Seq String: EAEQSLRNLEDIHMSLEKDIAAMT [TEKT4]
protein stability index: 4.8
//
Seq String: LLHLHQTAHADEFDCPSELQHTQE [STEAP1]
protein stability index: 4.78
//
Seq String: EQGEPLWTLEDEIHSPAHPEIEKA [ZNF649]
protein stability index: 5.57
//
Seq String: QHYFYDYDCGEDFYRSTAPSEDIW [MYCL]
protein stability index: 2.59
//
Seq String: IGESMYGDFEEAFDHLQNRLIATK [TENT5C]
protein stability index: 3.59
//
Seq String: RFHRARWGLEEEDFQPREEAMLYH [P3H4]
protein stability index: 2.9
//
Seq String: IYTEFPDETLRSGELLNMIVAVID [INTS3]
protein stability index: 2.47
//
Seq String: HGIRPPQLEQPEKMPVLKAEASHY [RHOBTB3]
protein stability index: 4.41
//
Seq String: GSDKQQQQQHIECVVCGDKSSGKH [NR2F2]
protein stability index: 5.07
//
Seq String: MFSVLSYGRLVARAVLGGLSQTDP [PPTC7]
protein stability index: 2.85
//
Seq String: TQYFVQENYLEYRQVPGSDPACYE [MAGEA6]
protein stability index: 3.59
//
Seq String: QARKALFEKWEQETAAGKGKGEAR [SMTNL2]
protein stability index: 4.84
//
Seq String: LSSVEAYNIRTDSWTTVTSMTTPR [KLHL12]
protein stability index: 3.23
